experiment: Peak plasma concentration in rat at 195 mg, sublingual; format: ADME, organism-based
measured.endpoint: Cmax (ng/mL)
Numbers only here, please. The scale is ng/mL.

// query Tell me the measured Cmax of C[C@@H]1CN(C(=O)[C@@H]2CN(C(C)(C)C)C[C@H]2c2ccc(F)cc2F)C[C@H](C)[C@@]1(O)c1ccccc1.Cl , please.
// result 31

###

target: Melanocortin receptor 4 (Homo sapiens, UniProt P32245); test: Displacement of [125I]-MT-II from human recombinant MC4 receptor expressed in CHO cells by scintillation counting
Sequence (P32245 whole entry): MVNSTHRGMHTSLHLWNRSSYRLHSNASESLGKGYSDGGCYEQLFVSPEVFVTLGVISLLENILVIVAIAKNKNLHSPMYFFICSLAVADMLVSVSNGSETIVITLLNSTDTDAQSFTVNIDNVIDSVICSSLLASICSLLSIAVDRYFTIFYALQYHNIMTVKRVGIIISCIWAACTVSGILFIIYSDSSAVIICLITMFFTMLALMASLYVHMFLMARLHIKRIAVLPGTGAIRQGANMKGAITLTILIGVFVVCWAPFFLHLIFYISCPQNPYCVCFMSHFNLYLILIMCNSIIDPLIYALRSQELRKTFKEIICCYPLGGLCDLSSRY
# pKi per entry
Worth noting: pKi values are minus log10 of concentrations stated in mol/L.

compound.smiles	target.under.test	measured.endpoint	assay.value
CC(C)N1C[C@@H](C(=O)N2C[C@@H](C)[C@](O)(c3ccccc3)[C@@H](C)C2)[C@H](c2ccc(F)cc2F)C1	Melanocortin receptor 4 (Homo sapiens, UniProt P32245)	pKi	6.94
C[C@@H]1CN(C(=O)[C@@H]2CN(C(C)(C)C)C[C@H]2c2ccc(F)cc2F)C[C@H](C)[C@@]1(O)c1ccc(F)cc1.Cl	Melanocortin receptor 4 (Homo sapiens, UniProt P32245)	pKi	7.44
C[C@@H]1CN(C(=O)[C@H]2CN(C3CC3)C[C@@H]2c2ccc(F)cc2F)C[C@H](C)[C@@]1(O)c1ccccc1	Melanocortin receptor 4 (Homo sapiens, UniProt P32245)	pKi	6.54
C[C@@H]1CN(C(=O)[C@H]2CN(C3CCC3)C[C@@H]2c2ccc(F)cc2F)C[C@H](C)[C@@]1(O)c1ccccc1	Melanocortin receptor 4 (Homo sapiens, UniProt P32245)	pKi	7.21

// query Request the reported pKi associated with CCC[C@@]1(O)[C@H](C)CN(C(=O)[C@H]2CN(c3cccnn3)C[C@@H]2c2ccc(F)cc2F)C[C@@H]1C
// result 7.25

// query Field request: pKi | item: C[C@@H]1CN(C(=O)[C@H]2CN(c3ccccn3)C[C@@H]2c2ccc(F)cc2F)C[C@H](C)[C@@]1(O)c1ccccc1
// result 7.10

// query Entry under review: C[C@@H]1CN(C(=O)[C@H]2CN(c3ncccn3)C[C@@H]2c2ccc(F)cc2F)C[C@H](C)[C@@]1(O)c1ccccc1 . Reported pKi?
// result 6.52

// query Quick check: pKi of C[C@@H]1CN(C(=O)[C@@H]2CN(C)C[C@H]2c2ccc(F)cc2F)C[C@H](C)[C@@]1(O)c1ccc(F)cc1 ?
// result 6.46

// query Look at this compound and give its reported pKi. CCCCN1C[C@H](C(=O)N2C[C@@H](C)[C@](O)(c3ccccc3)[C@@H](C)C2)[C@@H](c2ccc(F)cc2F)C1
// result 6.63

// query Item C[C@@H]1CN(C(=O)[C@@H]2CN(C(C)(C)C)C[C@H]2c2ccc(F)cc2F)C[C@H](C)[C@@]1(O)c1cccc(F)c1 has what recorded pKi?
// result 7.01
